So I've got a bunch of compounds here, and I need their IC50 values.
# Tested on: NCI-H2110
# ASSAY_OVERVIEW: In vitro cytotoxicity (CCK-8) in NCI-H2110 cells
# Assay type: cell-based
# REPORTED_CONDITIONS: Homo sapiens; NCI-H2110 cell line; 120 hours incubation; CCK-8; read-out: IC50
# Method: Cytotoxic potencies of the compounds are assessed in flat-bottomed 96-well cell culture plates (Corning Costar) using cell counting Kit-8 (CCK-8) assay (Shanghai Life Lab Biotech Co., Ltd.). […] Dispensed 175 μL cell suspension in 96-well plate at 1500 cells per well and incubate for 24 hours in a humidified incubator (37° C., 5% CO2). […] Measured the absorbance at 450 nm using a SpectraMax i3x Microplate Reader and calculated the cell inhibition rate. […]
Square brackets hold non-standard residues; d marks the D form. Peptide text beside a SMILES is read from it. * marks the point of attachment. Dolaproine = CO[C@@H]([C@@H]1CCCN1)[C@@H](C)C(=O)O; Phe(βS-OH) = N[C@H](C(=O)O)[C@@H](O)c1ccccc1; Dil = CC[C@H](C)[C@H](NC)[C@@H](CC(=O)O)OC; X1 = CC(C)[C@@H](C(=O)*)N(C)CCS

Fill in the recorded IC50 for this compound, with NCI-H2110 as test system: CC[C@H](C)[C@@H]([C@@H](CC(=O)N1CCC[C@H]1[C@H](OC)[C@@H](C)C(=O)N[C@H](C)[C@@H](O)c1ccccc1)OC)N(C)C(=O)[C@@H](NC(=O)[C@H](C(C)C)N(C)CCS)C(C)C
0.01 µM

Fill in the recorded IC50 for this compound, with NCI-H2110 as test system: CC[C@H](C)[C@@H]([C@@H](CC(=O)N1CCC[C@H]1[C@H](OC)[C@@H](C)C(=O)N[C@H](C(=O)O)[C@@H](O)c1ccccc1)OC)N(C)C(=O)[C@@H](NC(=O)[C@H](C(C)C)N(C)CCS)C(C)C (X1-V[Dil][Dolaproine][Phe(βS-OH)]-OH)
0.012 µM

Fill in the recorded IC50 for this compound, with NCI-H2110 as test system: CC[C@@]1(O)C(=O)OCc2c1cc1n(c2=O)Cc2cc3c(CCCCO)c(C)c(F)cc3nc2-1
0.00085 µM

====

# System: NCI-N87
# ASSAY_OVERVIEW: In vitro cytotoxicity (CCK-8) in NCI-N87 cells
# Format: cell-based
# REPORTED_CONDITIONS: Homo sapiens, NCI-N87 cell line, 120 hours incubation
Square brackets hold non-standard residues; d marks the D form. Peptide text beside a SMILES is read from it. * marks the point of attachment. Dolaproine = CO[C@@H]([C@@H]1CCCN1)[C@@H](C)C(=O)O; Phe(βS-OH) = N[C@H](C(=O)O)[C@@H](O)c1ccccc1; Dil = CC[C@H](C)[C@H](NC)[C@@H](CC(=O)O)OC; X2 = CSCCN(C)[C@H](C(=O)*)C(C)C
RESULT_TYPE: IC50 (nM)
State just the number; it will be interpreted in nM.

Fill in the recorded IC50 for this compound, with NCI-N87 as test system: CC[C@H](C)[C@@H]([C@@H](CC(=O)N1CCC[C@H]1[C@H](OC)[C@@H](C)C(=O)N[C@H](C)[C@@H](O)c1ccccc1)OC)N(C)C(=O)[C@@H](NC(=O)[C@H](C(C)C)N(C)CCSC)C(C)C
0.94

Fill in the recorded IC50 for this compound, with NCI-N87 as test system: CC[C@H](C)[C@@H]([C@@H](CC(=O)N1CCC[C@H]1[C@H](OC)[C@@H](C)C(=O)N[C@H](C)[C@@H](O)c1ccccc1)OC)N(C)C(=O)[C@@H](NC(=O)[C@H](C(C)C)N(C)CCS)C(C)C
4.8

Fill in the recorded IC50 for this compound, with NCI-N87 as test system: CC[C@@]1(O)C(=O)OCc2c1cc1n(c2=O)Cc2cc3c(CCCCO)c(C)c(F)cc3nc2-1
2.6

Fill in the recorded IC50 for this compound, with NCI-N87 as test system: CC[C@H](C)[C@@H]([C@@H](CC(=O)N1CCC[C@H]1[C@H](OC)[C@@H](C)C(=O)N[C@H](C(=O)O)[C@@H](O)c1ccccc1)OC)N(C)C(=O)[C@@H](NC(=O)[C@H](C(C)C)N(C)CCSC)C(C)C (X2-V[Dil][Dolaproine][Phe(βS-OH)]-OH)
32.3
